targetEntity: T1, human GIP receptor (human) (UniProt P48546)
T1 sequence (looked up): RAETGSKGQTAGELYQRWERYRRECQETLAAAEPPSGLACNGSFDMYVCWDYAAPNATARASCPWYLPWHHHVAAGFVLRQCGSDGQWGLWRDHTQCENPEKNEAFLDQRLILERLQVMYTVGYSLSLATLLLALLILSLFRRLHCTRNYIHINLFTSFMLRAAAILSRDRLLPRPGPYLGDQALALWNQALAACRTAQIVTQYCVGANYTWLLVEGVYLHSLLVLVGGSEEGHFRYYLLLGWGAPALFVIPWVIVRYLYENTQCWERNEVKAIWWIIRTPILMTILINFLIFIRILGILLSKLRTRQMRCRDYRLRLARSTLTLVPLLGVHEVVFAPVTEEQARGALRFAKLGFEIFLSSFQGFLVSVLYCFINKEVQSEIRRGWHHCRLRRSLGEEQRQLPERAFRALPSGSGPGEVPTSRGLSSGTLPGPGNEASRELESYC
measurementProtocol: cell-based or functional assay
*1 amine or outer side, *2 acyl side, *3 side chain or, on linkers, in order; H or OH if unused. Where no end group is shown, it is not given here. Side-chain parts run from the residue outwards. [ ]: non-standard residue; d: D form. The star is where a group is joined. Decanoyl(10-(4-HOOC-PhO)) = O=C(O)c1ccc(OCCCCCCCCCC(=O)*)cc1; αMePhe(2-F) = C[C@](N)(Cc1ccccc1F)C(=O)O; γGlu = O=C(O)[C@H](CCC(=O)[*:2])N[*:1]; C14 diacid = O=C(O)CCCCCCCCCCCCC(=O)*; αMeY = C[C@](N)(Cc1ccc(O)cc1)C(=O)O; αMeL = CC(C)C[C@](C)(N)C(=O)O; Orn = NCCC[C@H](N)C(=O)O; AEEA = NCCOCCOCC(=O)O; Aib = CC(C)(N)C(=O)O
Kindly state cAMP Emax for each of the entries shown.
Remember to quote the unit after the number.

(Q) Given the entry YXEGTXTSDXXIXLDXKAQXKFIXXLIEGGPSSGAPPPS (Y-Aib-EGT-αMeF(2F)-TSD-4Pal-Aib-I-αMeL-LD-Orn-K((2-[2-(2-Amino-ethoxy)-ethoxy]-acetyl)2-CO-(CH2)12-CO2H)AQ-Aib-K((2-[2-(2-Amino-ethoxy)-ethoxy]-acetyl)2-CO-(CH2)12-CO2H)FI-(D-Glu)-αMeY-LIEGGPSSGAPPPS-NH2) [Example 384] , report its measured cAMP Emax.
(A) 94.5%

(Q) Given the entry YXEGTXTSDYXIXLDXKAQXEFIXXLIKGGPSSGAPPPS (Y-Aib-EGT-αMeF(2F)-TSDY-Aib-I-αMeL-LD-Orn-K((2-[2-(2-Amino-ethoxy)-ethoxy]-acetyl)-(γ-Glu)-(10-(4-carboxyphenoxy)decanoyl))AQ-Aib-EFI-(D-Glu)-αMeY-LIK((2-[2-(2-Amino-ethoxy)-ethoxy]-acetyl)-(γ-Glu)-(10-(4-carboxyphenoxy)decanoyl))GGPSSGAPPPS-NH2) [Example 373] , report its measured cAMP Emax.
(A) 101%

(Q) Given the entry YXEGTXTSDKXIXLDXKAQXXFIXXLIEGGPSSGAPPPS (Y-Aib-EGT-αMeF(2F)-TSDK((2-[2-(2-Amino-ethoxy)-ethoxy]-acetyl)2-(γ-Glu)-CO-(CH2)10-CH3)-Aib-I-αMeL-LD-Orn-K((2-[2-(2-Amino-ethoxy)-ethoxy]-acetyl)2-(γ-Glu)-CO-(CH2)10-CH3)AQ-Aib-Orn-FI-(D-Glu)-αMeY-LIEGGPSSGAPPPS-NH2) [Example 417] , report its measured cAMP Emax.
(A) 101%

(Q) Given the entry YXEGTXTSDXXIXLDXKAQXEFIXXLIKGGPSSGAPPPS (Y-Aib-EGT-αMeF(2F)-TSD-4Pal-Aib-I-αMeL-LD-Orn-K((2-[2-(2-Amino-ethoxy)-ethoxy]-acetyl)2-(γ-Glu)-CO-(CH2)12-CO2H)AQ-Aib-EFI-(D-Glu)-αMeY-LIK((2-[2-(2-Amino-ethoxy)-ethoxy]-acetyl)2-(γ-Glu)-CO-(CH2)12-CO2H)GGPSSGAPPPS-NH2) [Example 358] , report its measured cAMP Emax.
(A) 99.6%

(Q) Given the entry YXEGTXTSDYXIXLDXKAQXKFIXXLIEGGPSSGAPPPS (Y-Aib-EGT-αMeF(2F)-TSDY-Aib-I-αMeL-LD-Orn-K((2-[2-(2-Amino-ethoxy)-ethoxy]-acetyl)2-(10-(4-carboxyphenoxy)decanoyl))AQ-Aib-K((2-[2-(2-Amino-ethoxy)-ethoxy]-acetyl)2-(10-(4-carboxyphenoxy)decanoyl))FI-(D-Glu)-αMeY-LIEGGPSSGAPPPS-NH2) [Example 393] , report its measured cAMP Emax.
(A) 94.3%

(Q) Given the entry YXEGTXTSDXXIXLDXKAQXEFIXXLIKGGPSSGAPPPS (Y-Aib-EGT-αMeF(2F)-TSD-4Pal-Aib-I-αMeL-LD-Orn-K((2-[2-(2-Amino-ethoxy)-ethoxy]-acetyl)2-(γ-Glu)-CO-(CH2)10-CH3)AQ-Aib-EFI-(D-Glu)-αMeY-LIK((2-[2-(2-Amino-ethoxy)-ethoxy]-acetyl)2-(γ-Glu)-CO-(CH2)10-CH3)GGPSSGAPPPS-NH2) [Example 334] , report its measured cAMP Emax.
(A) 103%

(Q) Given the entry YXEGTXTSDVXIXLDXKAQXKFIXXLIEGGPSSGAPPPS (Y-Aib-EGT-αMeF(2F)-TSDV-Aib-I-αMeL-LD-Orn-K((2-[2-(2-Amino-ethoxy)-ethoxy]-acetyl)2-(γ-Glu)-(10-(4-carboxyphenoxy)decanoyl))AQ-Aib-K((2-[2-(2-Amino-ethoxy)-ethoxy]-acetyl)2-(γ-Glu)-(10-(4-carboxyphenoxy)decanoyl))FI-(D-Glu)-αMeY-LIEGGPSSGAPPPS-NH2) [Example 319] , report its measured cAMP Emax.
(A) 98.1%

(Q) Given the entry Y[Aib]EGT[αMePhe(2-F)]TSDV[Aib]I[αMeL]LD[Orn]IAQ[Aib]K([AEEA-AEEA-γGlu-Decanoyl(10-(4-HOOC-PhO))])FI[dE][αMeY]LIEGGPSSGAPPPSK([AEEA-AEEA-γGlu-Decanoyl(10-(4-HOOC-PhO))])-NH2 [Example 383] , report its measured cAMP Emax.
(A) 100%

(Q) Given the entry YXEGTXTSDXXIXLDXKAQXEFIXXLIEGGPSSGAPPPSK (Y-Aib-EGT-αMeF(2F)-TSD-4Pal-Aib-I-αMeL-LD-Orn-K((2-[2-(2-Amino-ethoxy)-ethoxy]-acetyl)-(γ-Glu)-CO-(CH2)10-CH3)AQ-Aib-EFI-(D-Glu)-αMeY-LIEGGPSSGAPPPSK((2-[2-(2-Amino-ethoxy)-ethoxy]-acetyl)-(γ-Glu)-CO-(CH2)10-CH3)-NH2) [Example 428] , report its measured cAMP Emax.
(A) 95.5%

(Q) Given the entry YXEGTXTSDXXIXLDXKAQXEXIXXLIKGGPSSGAPPPS (Y-Aib-EGT-αMeF(2F)-TSD-4Pal-Aib-I-αMeL-LD-Orn-K((2-[2-(2-Amino-ethoxy)-ethoxy]-acetyl)3-(γ-Glu)-CO-(CH2)10-CH3)AQ-Aib-E-αMeF-I-(D-Glu)-αMeY-LIK((2-[2-(2-Amino-ethoxy)-ethoxy]-acetyl)3-(γ-Glu)-CO-(CH2)10-CH3)GGPSSGAPPPS-NH2) [Example 438] , report its measured cAMP Emax.
(A) 98.9%

(Q) Given the entry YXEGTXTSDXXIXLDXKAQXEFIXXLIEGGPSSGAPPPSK (Y-Aib-EGT-αMeF(2F)-TSD-4Pal-Aib-I-αMeL-LD-Orn-K((2-[2-(2-Amino-ethoxy)-ethoxy]-acetyl)3-(γ-Glu)-CO-(CH2)10-CH3)AQ-Aib-EFI-(D-Glu)-αMeY-LIEGGPSSGAPPPSK((2-[2-(2-Amino-ethoxy)-ethoxy]-acetyl)3-(γ-Glu)-CO-(CH2)10-CH3)-NH2) [Example 424] , report its measured cAMP Emax.
(A) 101%

(Q) Given the entry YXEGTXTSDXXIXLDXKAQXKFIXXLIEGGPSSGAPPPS (Y-Aib-EGT-αMeF(2F)-TSD-4Pal-Aib-I-αMeL-LD-Orn-K((2-[2-(2-Amino-ethoxy)-ethoxy]-acetyl)2-(γ-Glu)-CO-(CH2)12-CO2H)AQ-Aib-K((2-[2-(2-Amino-ethoxy)-ethoxy]-acetyl)2-(γ-Glu)-CO-(CH2)12-CO2H)FI-(D-Glu)-αMeY-LIEGGPSSGAPPPS-NH2) [Example 357] , report its measured cAMP Emax.
(A) 99.9%

(Q) Given the entry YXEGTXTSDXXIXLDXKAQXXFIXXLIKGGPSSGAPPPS (Y-Aib-EGT-αMeF(2F)-TSD-4Pal-Aib-I-αMeL-LD-Orn-K((2-[2-(2-Amino-ethoxy)-ethoxy]-acetyl)2-(γ-Glu)-CO-(CH2)10-CH3)AQ-Aib-Orn-FI-(D-Glu)-αMeY-LIK((2-[2-(2-Amino-ethoxy)-ethoxy]-acetyl)2-(γ-Glu)-CO-(CH2)10-CH3)GGPSSGAPPPS-NH2) [Example 414] , report its measured cAMP Emax.
(A) 98.4%

(Q) Given the entry YXEGTXTSDYXIXLDXKAQXXFIXXLIKGGPSSGAPPPS (Y-Aib-EGT-αMeF(2F)-TSDY-Aib-I-αMeL-LD-Orn-K((2-[2-(2-Amino-ethoxy)-ethoxy]-acetyl)2-(γ-Glu)-(10-(4-carboxyphenoxy)decanoyl))AQ-Aib-Om-FI-(D-Glu)-αMeY-LIK((2-[2-(2-Amino-ethoxy)-ethoxy]-acetyl)2-(γ-Glu)-(10-(4-carboxyphenoxy)decanoyl))GGPSSGAPPPS-NH2) [Example 352] , report its measured cAMP Emax.
(A) 98.3%

(Q) Given the entry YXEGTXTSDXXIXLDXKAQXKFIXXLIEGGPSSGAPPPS (Y-Aib-EGT-αMeF(2F)-TSD-4Pal-Aib-I-αMeL-LD-Orn-K((2-[2-(2-Amino-ethoxy)-ethoxy]-acetyl)3-(γ-Glu)-CO-(CH2)10-CH3)AQ-Aib-K((2-[2-(2-Amino-ethoxy)-ethoxy]-acetyl)3-(γ-Glu)-CO-(CH2)10-CH3)FI-(D-Glu)-αMeY-LIEGGPSSGAPPPS-NH2) [Example 422] , report its measured cAMP Emax.
(A) 104%

(Q) Given the entry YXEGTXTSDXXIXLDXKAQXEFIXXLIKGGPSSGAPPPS (Y-Aib-EGT-αMeF(2F)-TSD-4Pal-Aib-I-αMeL-LD-Orn-K((2-[2-(2-Amino-ethoxy)-ethoxy]-acetyl)-Aoc-CO-(CH2)12-CO2H)AQ-Aib-EFI-(D-Glu)-αMeY-LIK(((2-[2-(2-Amino-ethoxy)-ethoxy]-acetyl)-Aoc-CO-(CH2)12-CO2H)GGPSSGAPPPS-NH2)) [Example 465] , report its measured cAMP Emax.
(A) 94.9%

(Q) Given the entry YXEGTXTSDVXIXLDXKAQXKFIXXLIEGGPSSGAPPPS (Y-Aib-EGT-αMeF(2F)-TSDV-Aib-I-αMeL-LD-Orn-K((2-[2-(2-Amino-ethoxy)-ethoxy]-acetyl)2-(γ-Glu)-CO-(CH2)12-CO2H)AQ-Aib-K((2-[2-(2-Amino-ethoxy)-ethoxy]-acetyl)2-(γ-Glu)-CO-(CH2)12-CO2H)FI-(D-Glu)-αMeY-LIEGGPSSGAPPPS-NH2) [Example 318] , report its measured cAMP Emax.
(A) 106%

(Q) Given the entry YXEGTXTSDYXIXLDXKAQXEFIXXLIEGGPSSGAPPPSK (Y-Aib-EGT-αMeF(2F)-TSDY-Aib-I-αMeL-LD-Orn-K((2-[2-(2-Amino-ethoxy)-ethoxy]-acetyl)2-(γ-Glu)-CO-(CH2)10-CH3)AQ-Aib-EFI-(D-Glu)-αMeY-LIEGGPSSGAPPPSK((2-[2-(2-Amino-ethoxy)-ethoxy]-acetyl)2-(γ-Glu)-CO-(CH2)10-CH3)-NH2) [Example 302] , report its measured cAMP Emax.
(A) 100%

(Q) Given the entry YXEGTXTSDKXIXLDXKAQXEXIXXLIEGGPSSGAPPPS (Y-Aib-EGT-αMeF(2F)-TSDK((2-[2-(2-Amino-ethoxy)-ethoxy]-acetyl)2-(γ-Glu)-CO-(CH2)10-CH3)-Aib-I-αMeL-LD-Orn-K((2-[2-(2-Amino-ethoxy)-ethoxy]-acetyl)2-(γ-Glu)-CO-(CH2)10-CH3)AQ-Aib-E-αMeF-I-(D-Glu)-αMeY-LIEGGPSSGAPPPS-NH2) [Example 429] , report its measured cAMP Emax.
(A) 108%

(Q) Given the entry YXEGTXTSDXXIXLDXKAQXEXIXXLIEGGPSSGAPPPSK (not fully specified; Y-Aib-EGT-αMeF(2F)-TSD-4Pal-Aib-I-αMeL-LD-Orn-K((2-[2-(2-Amino-ethoxy)-ethoxy]-acetyl)2-(γ Glu)-CO-(CH2)10C3)AQ-Aib-E-αMeF-I-(D-Glu)-αMeY-LIEGGPSSGAPPPSK((2-[2-(2-Amino-ethoxy)-ethoxy]-acetyl)2-(γ-Glu)-CO-(CH2)10-CH3)-NH2) [Example 431] , report its measured cAMP Emax.
(A) 104%

(Q) Given the entry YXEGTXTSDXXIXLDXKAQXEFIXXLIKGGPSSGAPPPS (Y-Aib-EGT-αMeF(2F)-TSD-4Pal-Aib-I-αMeL-LD-Orn-K((2-[2-(2-Amino-ethoxy)-ethoxy]-acetyl)2-CO-(CH2)12-CO2H)AQ-Aib-EFI-(D-Glu)-αMeY-LIK((2-[2-(2-Amino-ethoxy)-ethoxy]-acetyl)2-CO-(CH2)12-CO2H)GGPSSGAPPPS-NH2) [Example 387] , report its measured cAMP Emax.
(A) 102%

(Q) Given the entry Y[Aib]EGT[αMePhe(2-F)]TSDV[Aib]I[αMeL]LD[Orn]K([AEEA-AEEA-γGlu-C14 diacid])AQ[Aib][Orn]FI[dE][αMeY]LIK([AEEA-AEEA-γGlu-C14 diacid])GGPSSGAPPPS-NH2 [Example 350] , report its measured cAMP Emax.
(A) 101%

(Q) Given the entry YXEGTXTSDKXIXLDGKAQXEFIXXLIEGGPSSGAPPPS (Y-Aib-EGT-αMeF(2F)-TSDK((2-[2-(2-Amino-ethoxy)-ethoxy]-acetyl)2-(γ-Glu)-CO-(CH2)10-CH3)-Aib-I-αMeL-LDGK((2-[2-(2-Amino-ethoxy)-ethoxy]-acetyl)2-(γ-Glu)-CO-(CH2)10-CH3)AQ-Aib-EFI-(D-Glu)-αMeY-LIEGGPSSGAPPPS-NH2) [Example 445] , report its measured cAMP Emax.
(A) 102%
